Origin of the recorded values: a melting point compilation (Tetko et al.; mined from patent text by program, amines drawn as free bases though some values may be those of a salt)

measure-name: melting point

| compound | measure-name | reported-measurement |
| --- | --- | --- |
| Nc1ccc(F)c(CO)c1 | melting point | 80 to 84 °C |
| CCC1(Cc2ccccc2)C(=O)N(C)C(=Cc2ccccc2C#N)C(=O)N1C (stereo not given) | melting point | 120 °C |
| CCn1c(Oc2cccc(N)c2)nnc1[C@@H](C)NS(=O)(=O)c1ccc(Cl)c(Cl)c1 | melting point | 142 to 145 °C |
| CON=C(C(=O)OC)c1cc(Cl)nc(NC=O)n1 | melting point | 165 to 172 °C |
| Cc1c(Sc2ccc(Cl)cc2)nn(-c2ccc3c(c2)OCO3)c(=O)c1C#N | melting point | 166 to 168 °C |
